TEST: Metabolic stability in liver microsomes, HLM
MEASUREMENT_SETUP: 1 μM, NADPH
Structures can show the parent of a compound that is named as a salt.
OBSERVED_PROPERTY: Metabolic stability HLM % remaining in 30 min (%)
Form entry: value (%) — number only.

Exercise: Note Metabolic stability HLM % remaining in 30 min for the compound shown: O=C(NO)c1ccc(/C=C/C(=O)N2CCC(CN[C@H]3C[C@@H]3c3ccccc3)CC2)cc1 [Example 114B, TFA Salt]
Solution: 73

Exercise: Answer with the recorded Metabolic stability HLM % remaining in 30 min for the compound listed here: O=C(NO)c1ccc(/C=C/C(=O)N2CCC(CNC3CC3c3ccc(-c4cncnc4)cc3)CC2)cc1 (stereo not drawn) [Example 117, TFA Salt]
Solution: 80

Exercise: Find the measured Metabolic stability HLM % remaining in 30 min of O=C(NO)c1cnc(N2CCC(CNC3CC3c3ccc(OCc4ccc(F)cc4)cc3)CC2)nc1 (stereo not drawn) [Example 11, TFA Salt] and report it.
Solution: 44

Exercise: Query Metabolic stability HLM % remaining in 30 min for O=C(NO)c1ccc2c(c1)CN(C(=O)CN[C@@H]1C[C@H]1c1ccc(F)cc1)CC2 [Example 104B, TFA Salt]
Solution: 74

Exercise: Consider the compound O=C(NO)c1ccc(OCCN2CCC(CNC3CC3c3ccc(F)cc3)CC2)nc1 (stereo not drawn) [Example 96, TFA Salt] and give its recorded Metabolic stability HLM % remaining in 30 min.
Solution: 93

Exercise: Please report the measured Metabolic stability HLM % remaining in 30 min for O=C(NO)c1ccc(OCCN2CCC(CNC3CC3c3ccccc3)CC2)cc1 (stereo not drawn) [Example 99, TFA Salt]
Solution: 63

Exercise: Please report the measured Metabolic stability HLM % remaining in 30 min for O=C(NO)c1ccc(CCCN2CCC(CNC3CC3c3ccc(C(=O)N4CCCCC4)cc3)CC2)cc1 (stereo not drawn) [Example 54, TFA Salt]
Solution: 65

Exercise: Return value of Metabolic stability HLM % remaining in 30 min for input O=C(NO)c1ccc(CCCN2CC(CNC3CC3c3ccc(-c4ccc(F)cc4)cc3)C2)cc1 (stereo not drawn) [Example 58, TFA Salt] , no commentary.
Solution: 85

Exercise: Quickly give me recorded Metabolic stability HLM % remaining in 30 min for O=C(NO)c1cc2c(s1)CCN(C(=O)CN[C@H]1C[C@@H]1c1ccc(F)cc1)C2 [Example 103B, TFA Salt]
Solution: 76

Exercise: Fill in Metabolic stability HLM % remaining in 30 min for record O=C(NO)c1cc2c(s1)CCN(C(=O)CNC1CC1c1ccc(F)cc1)C2 (stereo not drawn) [Example 103, TFA Salt]
Solution: 85

Exercise: Using the record for O=C(NO)c1ccc(CCCN2CCC(CNC3CC3c3ccc(-c4ccc(Cl)cc4)cc3)CC2)cc1 (stereo not drawn) [Example 56, TFA Salt] , state its measured Metabolic stability HLM % remaining in 30 min.
Solution: 87

Exercise: Indicate its recorded Metabolic stability HLM % remaining in 30 min; the compound in question is O=C(NO)c1ccc(CCCN2CCC(CNC3CC3c3ccc(-c4cncnc4)cc3)CC2)cc1 (stereo not drawn) [Example 61, TFA Salt]
Solution: 77

Exercise: Give the reported Metabolic stability HLM % remaining in 30 min for this compound. O=C(CCCCCCNC(=O)c1ccc(CNC2CC2c2ccccc2)cc1)NO (stereo not drawn) [Example 31, TFA Salt]
Solution: 39

Exercise: Specify measured Metabolic stability HLM % remaining in 30 min for Cc1noc(C)c1-c1ccc(C2CC2NCC2CCN(c3ncc(C(=O)NO)cn3)CC2)cc1 (stereo not drawn) [Example 16, TFA Salt] .
Solution: 47

Exercise: Supply measured Metabolic stability HLM % remaining in 30 min of O=C(NO)c1cnc(N2CCC(CN[C@@H]3C[C@H]3c3ccc(F)cc3)CC2)nc1 [Example 20, TFA Salt] in your reply.
Solution: 91

Exercise: Determine its reported Metabolic stability HLM % remaining in 30 min: O=C(NO)c1ccc(CC(=O)N2CCC(CN[C@@H]3C[C@H]3c3ccccc3)CC2)cc1 [Example 84A, TFA Salt]
Solution: 78

Exercise: Please look at this compound and report its Metabolic stability HLM % remaining in 30 min: Nc1ccccc1NC(=O)c1ccc(CCC(=O)N2CCC(NC3CC3c3ccccc3)CC2)cc1 (stereo not drawn) [Example 133, TFA Salt]
Solution: 19

Exercise: Return the recorded Metabolic stability HLM % remaining in 30 min value; entry: O=C(NO)c1ccc(/C=C/C(=O)N2CCC(CN[C@H]3C[C@@H]3c3ccc(F)cc3)CC2)cc1 [Example 115, TFA Salt]
Solution: 75

Exercise: Tell us which Metabolic stability HLM % remaining in 30 min value is on record for O=C(NO)c1cnc(N2CCC(NC3CC3c3ccc(OCc4ccc(F)cc4)cc3)CC2)nc1 (stereo not drawn) [Example 12, TFA Salt]
Solution: 95

Exercise: Please give the documented Metabolic stability HLM % remaining in 30 min of O=C(NO)c1ccc(CN2CCc3ccc(CNC4CC4c4ccc(F)cc4)cc3C2)cc1 (stereo not drawn) [Example 79, TFA Salt]
Solution: 18

Exercise: State its Metabolic stability HLM % remaining in 30 min for this compound: Nc1ccccc1NC(=O)c1ccc(CN2CCC(CNC3CC3c3ccc(-c4cncnc4)cc3)CC2)cc1 (stereo not drawn) [Example 144, TFA Salt]
Solution: 68

Exercise: Look up and state reported Metabolic stability HLM % remaining in 30 min for O=C(NO)c1cnc(N2CCC(CNC3CC3c3ccc(-c4cncnc4)cc3)CC2)nc1 (stereo not drawn) [Example 17, TFA Salt]
Solution: 69

Exercise: Retrieve Metabolic stability HLM % remaining in 30 min measured for Nc1ccccc1NC(=O)c1ccc2c(c1)CN(C(=O)CNC1CC1c1ccc(F)cc1)CC2 (stereo not drawn) [Example 152, TFA Salt] and print it.
Solution: 36

Exercise: # return recorded Metabolic stability HLM % remaining in 30 min for entry O=C(NO)c1ccc(CCCN2CCC(CNC3CC3c3ccccc3)CC2)cc1 (stereo not drawn) [Example 43, TFA Salt]
Solution: 40

Exercise: State its Metabolic stability HLM % remaining in 30 min: O=C(NO)c1ccc(CN2CCC(CNC3CC3c3ccccc3)CC2)cc1 (stereo not drawn) [Example 36, TFA Salt]
Solution: 63

Exercise: Answer with reported Metabolic stability HLM % remaining in 30 min of O=C(NO)c1ccc(CN2CCN(C(=O)CNC3CC3c3ccccc3)CC2)cc1 (stereo not drawn) [Example 91, TFA Salt]
Solution: 85

Exercise: Identify measured Metabolic stability HLM % remaining in 30 min corresponding to O=C(NO)c1cc2c(s1)CCN(C(=O)CCCN1CCC(CNC3CC3c3ccc(F)cc3)CC1)C2 (stereo not drawn) [Example 106, TFA Salt]
Solution: 74

Exercise: Give the reported Metabolic stability HLM % remaining in 30 min for this compound. Nc1ccccc1NC(=O)c1ccc(CCCN2CCC(CNC3CC3c3ccc(F)cc3)CC2)cc1 (stereo not drawn) [Example 122, TFA Salt]
Solution: 77

Exercise: Look up and state reported Metabolic stability HLM % remaining in 30 min for O=C(NO)c1ccc(CCCN2CCC(CNC3CC3c3ccc(F)cc3)CC2)cc1 (stereo not drawn) [Example 47, TFA Salt]
Solution: 54

---

Provide the reported Vd of each item.
TEST: In vivo PK studies in mice
Design: species or system Male Balb/C mice
MEASUREMENT_SETUP: male, Balb/C, mouse, plasma, IV 2 mg/kg
Structures can show the parent of a compound that is named as a salt.
Provide only the numeric value, understood in L/kg.

Exercise: Give recorded Vd. Cn1cc(-c2ccc(C3CC3NCC3CCN(Cc4ccc(C(=O)Nc5ccccc5N)cc4)CC3)cc2)cn1 (stereo not drawn) [Example 142, TFA Salt]
Solution: 25

Exercise: State, in one line, measured Vd of O=C(NO)c1ccc(CCCN2CCC(CNC3CC3c3ccc(-c4ccc(F)cc4)cc3)CC2)cc1 (stereo not drawn) [Example 57, TFA Salt]
Solution: 28

Exercise: Return Vd for the following molecule: O=C(NO)c1ccc(/C=C/C(=O)N2CCC(CN[C@@H]3C[C@H]3c3ccc(F)cc3)CC2)cc1 [Example 115A, TFA Salt]
Solution: 8

---

TEST: Metabolic stability in liver microsomes, MLM
MEASUREMENT_SETUP: 1 μM, NADPH
Counter-ions that a name gives are not always drawn.
For each entry below, report its Metabolic stability MLM % remaining in 30 min value.
Write the number in % without appending the unit.

Exercise: State its Metabolic stability MLM % remaining in 30 min: COc1ccc(C2CC2NCC2CCN(CCCc3ccc(C(=O)NO)cc3)CC2)cc1 (stereo not shown) [Example 51, TFA Salt]
Solution: 91

Exercise: Annotate the molecule O=C(NO)c1cnc(N2CCC(CN[C@H]3C[C@@H]3c3ccc(F)cc3)CC2)nc1 [Example 21, TFA Salt] with its measured Metabolic stability MLM % remaining in 30 min.
Solution: 51

Exercise: Write down Metabolic stability MLM % remaining in 30 min measured for item O=C(/C=C/c1ccc(CNC2CC2c2ccc(C3CC3)cc2)cc1)NO (stereo not shown) [Example 1]
Solution: 5

Exercise: Identify Metabolic stability MLM % remaining in 30 min associated with the molecule Cc1noc(C)c1-c1ccc(C2CC2NCC2CCN(Cc3ccc(C(=O)NO)cc3)CC2)cc1 (stereo not shown) [Example 37, TFA salt]
Solution: 55

Exercise: // fetch Metabolic stability MLM % remaining in 30 min given entry O=C(NO)c1ccc(CN2CCN(C(=O)CNC3CC3c3ccccc3)CC2)cc1 (stereo not shown) [Example 91, TFA Salt]
Solution: 79

Exercise: Consider the molecule O=C(NO)c1ccc(CCCN2CC(CNC3CC3c3ccc(-c4ccc(F)cc4)cc3)C2)cc1 (stereo not shown) [Example 58, TFA Salt] and give its recorded Metabolic stability MLM % remaining in 30 min.
Solution: 91

Exercise: For the molecule O=C(NO)c1ccc(OCCNC2CC2c2ccccc2)cc1 (stereo not shown) [Example 95, TFA Salt] , give its measured Metabolic stability MLM % remaining in 30 min value.
Solution: 55

Exercise: Provide one value: measured Metabolic stability MLM % remaining in 30 min of Nc1ccccc1NC(=O)c1ccc(OCCNC2CC2c2ccc(F)cc2)cc1 (stereo not shown) [Example 148, TFA Salt]
Solution: 34

Exercise: Identify the reported Metabolic stability MLM % remaining in 30 min for the following entry. O=C(NO)c1cnc(N2CCn3cc(CNC4CC4c4ccccc4)nc3C2)nc1 (stereo not shown) [Example 23, TFA Salt]
Solution: 85

Exercise: Respond only with Metabolic stability MLM % remaining in 30 min recorded for O=C(NO)c1cnc(N2CCC(CNC3CC3c3ccc(OCc4ccc(F)cc4)cc3)CC2)nc1 (stereo not shown) [Example 11, TFA Salt]
Solution: 14

Exercise: Query Metabolic stability MLM % remaining in 30 min for O=C(NO)c1ccc(CN2CCC(CNC3CC3c3ccccc3)CC2)cc1 (stereo not shown) [Example 36, TFA Salt]
Solution: 53

Exercise: Give me measured Metabolic stability MLM % remaining in 30 min, please, for this molecule: Nc1ccccc1NC(=O)c1ccc(CCCN2CC(CNC3CC3c3ccc(F)cc3)C2)cc1 (stereo not shown) [Example 126, TFA Salt]
Solution: 76

Exercise: Consider the molecule CC(NC1CC1c1ccccc1)[C@H]1CC[C@H](C(=O)NO)CC1 (stereo partly shown) [Example 34, TFA Salt] . State its measured Metabolic stability MLM % remaining in 30 min.
Solution: 79

Exercise: Complete the entry with Metabolic stability MLM % remaining in 30 min for O=C(NO)c1ccc(CCC(=O)N2CCC(CNC3CC3c3ccccc3)CC2)cc1 (stereo not shown) [Example 82, TFA Salt]
Solution: 72

Exercise: Look up and report measured Metabolic stability MLM % remaining in 30 min for this entry: Nc1ccccc1NC(=O)c1ccc(CN2CCC(CN[C@@H]3C[C@H]3c3ccccc3)CC2)cc1 [Example 140, TFA Salt]
Solution: 83

Exercise: Report Metabolic stability MLM % remaining in 30 min for O=C(NO)c1ccc(CC(=O)N2CCC(CN[C@@H]3C[C@H]3c3ccccc3)CC2)cc1 [Example 84A, TFA Salt]
Solution: 41
